B1: PhoQ; a variant is named by its letters at X, in order, P23837 (parent)
chain: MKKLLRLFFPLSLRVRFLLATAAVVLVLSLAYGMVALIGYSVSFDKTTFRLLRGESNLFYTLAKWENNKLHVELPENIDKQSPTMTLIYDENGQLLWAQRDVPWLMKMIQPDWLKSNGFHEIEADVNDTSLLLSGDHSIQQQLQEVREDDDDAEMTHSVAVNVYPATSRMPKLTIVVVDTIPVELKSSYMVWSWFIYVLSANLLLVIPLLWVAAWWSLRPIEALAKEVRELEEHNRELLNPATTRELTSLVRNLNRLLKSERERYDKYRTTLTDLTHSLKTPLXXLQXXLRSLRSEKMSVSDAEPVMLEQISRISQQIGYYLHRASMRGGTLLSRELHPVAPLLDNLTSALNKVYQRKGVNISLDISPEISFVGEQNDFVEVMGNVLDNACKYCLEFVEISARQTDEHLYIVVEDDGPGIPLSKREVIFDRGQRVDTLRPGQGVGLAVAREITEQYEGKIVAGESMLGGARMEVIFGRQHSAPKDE

variants of: B1; experiment: enrichment ratio after two sorts for PhoP signalling (ratio (wild type AVST 3.29)); higher = more functional; conditions: with PhoP (E. coli)
In all, about 140,000 sequences were measured (“enrichment ratio after two sorts for PhoP signalling”: median about 0, highest 2% from about 11 on). The entries come from a sample that favours the highest values as a whole.
quantityMeasured: enrichment ratio

Answered cases to consult:
RGHL: 0.34
ICWY: ≤ 0.25
CNHF: ≤ 0.25
TQCM: 33.7

Respectfully, I request enrichment ratio for each entry included below.
1. ADGW
2. WGLA
3. SLTH

1: ≤ 0.25; 2: ≤ 0.25; 3: 5.18

Respectfully, I request enrichment ratio for each entry included below.
1. NESV
2. MGTW
3. WLFH
4. FQCM
5. AQLT
6. TYDS

≤ 0.25
≤ 0.25
≤ 0.25
10.7
8.16
≤ 0.25

Respectfully, I request enrichment ratio for each entry included below.
1. HFCM
2. YHIM
3. GVIM
4. SIYM
5. NSDI
6. ELTM
7. NGVA

1. 1.37
2. ≤ 0.25
3. 19.3
4. 0.397
5. ≤ 0.25
6. ≤ 0.25
7. ≤ 0.25

Respectfully, I request enrichment ratio for each entry included below.
1. GTIM
2. RGLI
3. AKLY

[2.86, "≤ 0.25", 19.7]
